Test: ACEA_ER_AUC_viability: ACEA Biosciences xCELLigence Real-Time Cell Analysis on Estrogen Receptor Agonism for Viability (AID 2283782);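 also: continuous compound exposure with impedance area under curve over 80 h; hit means loss of impedance signal meaning reduced cell growth or viability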
Inconclusive results are not listed. Activity calls are given as the source filed them. The calls were made as follows: active = hit-call score of the fitted dose curve at least 0.9, where 1 is the maximum; inconclusive = response in the unintended direction; inactive = score below 0.9.
Outcomes: T (active), F (inactive)

molecule: CCC(C)c1ccccc1O (stereo not given)
label: T
--
molecule: CCCCCCCCCCCCCCC
label: F
--
molecule: CCCCCCc1ccc(N)cc1
label: T
--
molecule: CCCCCCC(C)(C)C(=O)O
label: F
--
molecule: C=CC(C)(CCC=C(C)C)OC(C)=O (stereo not given)
label: F
--
molecule: CCCCCCCCC(C)=O
label: T
--
molecule: CN(CCO)S(=O)(=O)C(F)(F)C(F)(F)C(F)(F)C(F)(F)C(F)(F)C(F)(F)C(F)(F)C(F)(F)F
label: F
--
molecule: CC1CNCC(C)O1 (stereo not given)
label: F
--
molecule: CCCCCCCCC1CCC(=O)O1 (stereo not given)
label: T
--
molecule: Cc1cc(C(C)(C)C)c(O)c(C(C)(C)C)c1
label: T
--
molecule: CCCCN(C)C
label: F
--
molecule: CC1=NN(c2ccccc2)C(=O)C1
label: F
--
molecule: O=C(O)C(=O)O
label: F
--
molecule: O=C(O)CCC(F)(F)C(F)(F)C(F)(F)C(F)(F)C(F)(F)F
label: F
--
molecule: Oc1cc2ccccc2cc1O
label: T
